# runDescription: Confirmation screen for delayed death inhibitors of the malarial parasite plastid, 96 hour incubation; further: nearly all actives have a fitted effect of over 60% in size
# conditions: P. falciparum luciferase growth in erythrocytes; series mostly up to 28.7 µM
In all, about 2,300 compounds went through this assay and about 1,400 (61%) were called active. Roughly 29% stayed inconclusive and do not appear here. The call rests on the fitted dose curve; in most records, active means well fitted inhibition curve with a large enough effect; inconclusive means small, poorly fitted or top-dose-only effect, or effect the other way; inactive means no such curve, though single readings can be large or run the other way. The set was probably picked from earlier hits. This is one part of the list.
Assign a class; possible classes are True (active), False (inactive)

Reference set, count: 3
* O=C1NC(=Nc2ccccc2)S/C1=C\c1ccccc1 | True
* C/C(=N\NC(=O)c1ccc(Cl)c(Cl)c1)c1ccc(Br)s1 | True
* CC(C)(C)C(=O)/C(=C\c1cccc([N+](=O)[O-])c1)n1cncn1 | True

Incoming: Identify the outcome logged in this assay for the compound shown: CC1(C)Cc2c(ccc3ccccc23)C(c2cc3ccccc3oc2=O)=N1
Outgoing: True

Incoming: Identify the outcome logged in this assay for the compound shown: CC(C)NC(=O)c1onc(CSc2cccc(F)c2)c1C(=O)O
Outgoing: False

Incoming: Identify the outcome logged in this assay for the compound shown: Cc1cc(C)nc(SCc2nnc(SCC(=O)Nc3nc(-c4ccccc4)cs3)n2C)n1
Outgoing: True
